Target: T1, human GIP receptor (human, UniProt P48546 22-466)
T1 sequence (looked up): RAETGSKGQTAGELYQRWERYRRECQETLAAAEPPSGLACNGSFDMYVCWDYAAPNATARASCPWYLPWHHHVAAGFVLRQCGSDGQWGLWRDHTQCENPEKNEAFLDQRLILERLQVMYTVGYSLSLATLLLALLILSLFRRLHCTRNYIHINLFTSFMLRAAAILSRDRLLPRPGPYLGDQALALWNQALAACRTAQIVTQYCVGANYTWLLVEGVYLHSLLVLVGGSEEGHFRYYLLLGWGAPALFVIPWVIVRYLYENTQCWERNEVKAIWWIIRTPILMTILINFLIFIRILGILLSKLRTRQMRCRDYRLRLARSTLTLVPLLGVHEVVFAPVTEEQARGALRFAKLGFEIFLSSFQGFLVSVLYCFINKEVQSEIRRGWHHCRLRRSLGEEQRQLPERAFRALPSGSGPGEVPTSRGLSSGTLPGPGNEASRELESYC
Test: cell-based or functional assay
Starred links: 1 amine or outer side, 2 acyl side, 3 side chain; linkers in the order of their positions; H or OH if unused. Non-standard residues stand in square brackets, D forms with d. Groups on a side chain read outwards from the residue. No end group written: not given here. *: point of attachment. C18 diacid = O=C(O)CCCCCCCCCCCCCCCCC(=O)*; γGlu = O=C(O)[C@H](CCC(=O)[*:2])N[*:1]; εLys = N[C@@H](CCCCN[*:1])C(=O)[*:2]; AEEA = NCCOCCOCC(=O)O; Aib = CC(C)(N)C(=O)O
# EC50 CreLuc hGIPR 0.5% hP listing for each entry below
Number in nM, nothing else.

Example results:
Give its EC50 CreLuc hGIPR 0.5% hP value. Item: Y[Aib]EGTFTSDYSI[Aib]LEKQAQ[Aib]EFVQWLIK([AEEA-AEEA-γGlu-γGlu-γGlu-C18 diacid])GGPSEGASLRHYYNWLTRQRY-NH2 [Compound 160] 0.33

Can you look up the measured EC50 CreLuc hGIPR 0.5% hP of YXEGTFTSDYSIXLEKQAQXEFVQWLIKGGPSEGASLRHYYNWLTRQRY (Aib at 2, 13, 20; K28 side chain: C18DA-gGlu-gGlu-gGlu-gGlu-gGlu-gGlu-eLys; C-terminal NH2) [Compound 153] for me? 0.22

// returns reported EC50 CreLuc hGIPR 0.5% hP for input Y[Aib]EGTFTSDYSI[Aib]LEKQAE[Aib]AFVQWLIK([εLys-γGlu-γGlu-γGlu-γGlu-γGlu-C18 diacid])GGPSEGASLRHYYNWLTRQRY-NH2 [Compound 138] 0.13

Quick check: EC50 CreLuc hGIPR 0.5% hP of YXEGTFTSDYSIXLEKQAQXAFVEWLIKGGPSSGASLRXYYNWLTRQRY (Aib at 2, 13, 20; Tle at 39; K28 side chain: C20DA-gGlu-gGlu-gGlu-gGlu-gGlu-gGlu-eLys; C-terminal NH2) [Compound 119] ? 0.63

Let's switch to this binder now.
What value of EC50 CreLuc hGIPR 0.5% hP has been recorded for this entry: YXEGTFTSDYSIXLERQAQXAFVEWLIKGGPSSGASLRHYYNWLTRQRY (Aib at 2, 13, 20; K28 side chain: C20DA-gGlu-gGlu-gGlu-gGlu-gGlu-gGlu-eLys; C-terminal NH2) [Compound 131] 0.35
